Biological target: HLA-A*24:03
Assay: IEDB peptide-MHC binding, purified MHC/direct/fluorescence; filed as Kd, often an IC50 or EC50 that approximates it; bounds were set here for any values at or beyond the usual limits of such assays
Details: source organism: Entamoeba histolytica HM-1:IMSS
RECORDED_METRIC: pKd
On this scale, pKd is minus log10 of a concentration expressed in M (mol/L).

Noted for QYQNEINYL : its pKd reads 8.52

###

Target: HLA-A*02:01
Assay: IEDB peptide-MHC binding, purified MHC/competitive/fluorescence; filed as Kd, often an IC50 or EC50 that approximates it; bounds were set here for any values at or beyond the usual limits of such assays
Conditions: source organism: Burkholderia mallei SAVP1
RECORDED_METRIC: Kd (nM)
Supply the numeric figure in nM, leaving out any unit text.

Noted for IMALKQAGL : its Kd reads 44.5

###

Reported Kd values for the following sequences.
Target: HLA-B*51:01
Experiment: IEDB peptide-MHC binding, purified MHC/competitive/radioactivity; filed as Kd, often an IC50 or EC50 that approximates it; bounds were set here for any values at or beyond the usual limits of such assays
Settings: source organism: SARS coronavirus Tor2
Supply the numeric figure in nM, leaving out any unit text.

SEQUENCE_RECORD | Kd [nM]
LPFHRWHTM | 11.1

Simply: LPIDKCSRII , HLA-B*51:01, Kd = 681

Simply: CPAVAVHDF , HLA-B*51:01, Kd = 241

Simply: MPYVFTLLF , HLA-B*51:01, Kd = 4.07

Simply: VPYNMRVIHF , HLA-B*51:01, Kd = 5590

###

Molecular target: HLA-B*15:02
Test: IEDB peptide-MHC binding, purified MHC/competitive/fluorescence; filed as Kd, often an IC50 or EC50 that approximates it; bounds were set here for any values at or beyond the usual limits of such assays
Details: source organism: Vibrio cholerae 2740-80
RECORDED_METRIC: Kd (nM)
Supply the numeric figure in nM, leaving out any unit text.

Noted for GMRVLGTNY : its Kd reads 229

###

Molecular target: HLA-A*31:01
Experiment: IEDB peptide-MHC binding, purified MHC/competitive/radioactivity; filed as Kd, often an IC50 or EC50 that approximates it; bounds were set here for any values at or beyond the usual limits of such assays
Settings: source organism: Lassa virus GA391
RECORDED_METRIC: pKd
On this scale, pKd is minus log10 of a concentration expressed in M (mol/L).

Noted for SLMSIISTFH : its pKd reads 5.43

###

Target: HLA-B*08:03
Assay: IEDB peptide-MHC binding, purified MHC/direct/fluorescence; filed as Kd, often an IC50 or EC50 that approximates it; bounds were set here for any values at or beyond the usual limits of such assays
Details: source organism: Influenza A virus(A/swine/Henan/8/2004(H9N2))
RECORDED_METRIC: Kd (nM)
Supply the numeric figure in nM, leaving out any unit text.

Noted for WMACHSAAF : its Kd reads 83

###

Molecular target: HLA-A*02:11
Experiment: IEDB peptide-MHC binding, purified MHC/competitive/fluorescence; filed as Kd, often an IC50 or EC50 that approximates it; bounds were set here for any values at or beyond the usual limits of such assays
Settings: source organism: Entamoeba histolytica HM-1:IMSS
RECORDED_METRIC: Kd

SEQUENCE_RECORD | Kd
EVIRATYPS | ≥ 20 µM

Next sequence, Kd to be filled in.
Simply: RTFDRFFEE , HLA-A*02:11, Kd = ≥ 20 µM
